Where do the numbers come from? From PubChem BioAssay.

Assay Notes: MRP1 drug-resistance reversers in H69AR cells – cell-based, doxorubicin co-treatment, pilot screen (AID 601)
Condition: H69AR cells, CellTiter-Glo, 72 h; compound alone cytotoxicity; at 10 µM
Measured Metric: viability

                                 cpd_smiles  experimental_value
0    c1ccc2[nH]c(CSc3nnc(-c4ccncc4)o3)nc2c1               90.9%
1  Cc1csc(NC(=O)c2cccc(S(=O)(=O)N3CCCCC3)c2)n1               87.5%
2      CC(=O)Nc1cccc(-c2nnc(-c3ccccc3)o2)c1               92.6%
3    COc1ccc(NC(=O)c2ccco2)cc1NC(=O)c1cccs1               88.5%

----------
Assay Notes: H69AR cell proliferation blockers – human, duplicate replicates, primary screen (AID 580);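 note: 100% = mean luminescence of untreated wells and 0% = no signal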
Condition: H69AR lung tumor cells viability, ATP luminescence, 72 h; at 10 µM
Active and inactive are the calls of the source.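 How the source made its calls: active means viability at or under a set limit in both replicates, limit being median viability minus 3 SD (cut at about 48% in these data, passing the limit was not always enough); inconclusive means at or under the limit in just one replicate; inactive means at or above the limit in both replicates.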
Possible outcomes: t for active, f for inactive

>>> print(df.to_string())
                                   compound  label_class
0  O=S1(=O)C=C(Sc2nnc(-c3ccccc3)o2)c2ccccc21            t
1      CS(=O)(=O)N(CC(=O)N1CCCCCC1)c1ccccc1            f
2      O=C(NCCN1CCCCCC1)c1ccc(N2CCCC2=O)cc1            f
3    CCOc1ncccc1C(=O)Nc1ccc2c(C)cc(=O)oc2c1            f
4  Cc1nn(-c2ccccc2)c(Cl)c1C1C(C#N)=C(N)OC2=C1C(=O)CC(C)(C)C2 (configuration not stated)            t
5  CN(c1ccccc1)S(=O)(=O)c1cc(C(=O)N2CCN(c3ccccn3)CC2)ccc1Cl            f
6         O=C(Nc1ccc2c(c1)OCO2)c1cccc(Cl)c1            f

----------
Assay Notes: MRP1 drug-resistance reversers in H69AR cells – cell-based, doxorubicin co-treatment, pilot screen (AID 601)
Condition: H69AR cells, CellTiter-Glo, 72 h; compound alone cytotoxicity; at 10 µM
Consider the cut-off 90%. If the recorded viability is strictly smaller, the label is Fulfilled; if not, the label is Not fulfilled.

>>> print(df.to_string())
                                    compound    label_class
 0  CCOC(=O)c1cc2sccc2n1CC(=O)Nc1ccc2c(c1)OCCO2      Fulfilled
 1  CCCN(CCC)CCNS(=O)(=O)c1ccc2c(c1)oc(=O)n2C  Not fulfilled
 2  CCOC(=O)c1c(COC(=O)c2ccco2)nc2ccccc2[n+]1[O-]      Fulfilled
 3       c1ccc(-n2ncc3c(NCc4cccs4)ncnc32)cc1      Fulfilled
 4  COC(=O)CN1C(=O)C2(C(C#N)=C(N)Oc3c2c(C)nn3-c2ccccc2)c2ccccc21 (centres undefined)      Fulfilled
 5  COc1ccc(C2C(C(C)=O)=C(C)N=c3s/c(=C\c4ccc5c(c4)OCO5)c(=O)n32)c(OC)c1 (centres undefined)  Not fulfilled
 6  O=c1[nH]c2ccccc2n1CCCN1CCN(C(c2ccccc2)c2ccccc2)CC1      Fulfilled
 7          O=c1c2ccccc2nc(-c2cccc(Cl)c2)n1O      Fulfilled
 8  Cc1ccc(OCc2nnc(SCC(=O)Nc3ccc4c(c3)OCO4)n2C)cc1      Fulfilled
 9  CN(C)S(=O)(=O)N1CCN(S(=O)(=O)c2ccc(F)cc2)CC1  Not fulfilled
10          C=CCNc1oc(-c2cccc3ccccc23)nc1C#N      Fulfilled
11  COc1ccc(CCNS(=O)(=O)c2ccc3c(c2)OCCO3)cc1  Not fulfilled
12    Cc1nc2ccccc2c(=O)n1NC(=O)c1ccc(F)cc1Cl  Not fulfilled
13  CCOC(=O)C1=C(Cn2cnc3ccccc32)NC(=O)NC1c1cc(C)ccc1C (centres undefined)      Fulfilled
14                NC(=O)SCC(=O)Nc1cccc(Cl)c1      Fulfilled
15  COc1ccc(S(=O)(=O)NCc2ccco2)cc1-c1nnc2c3ccccc3c(C)nn12      Fulfilled
16     O=C(CCCN1C(=O)c2ccccc2C1=O)NCc1cccnc1  Not fulfilled
17              O=c1oc2ccccc2c(O)c1CN1CCCCC1  Not fulfilled
18  CC[C@H]1CN2CCc3cc(OC)c(OC)cc3[C@@H]2C[C@@H]1C[C@H]1NCCc2cc(OC)c(OC)cc21      Fulfilled
19                   Cc1ccccc1NC(=O)c1ccccc1  Not fulfilled
20  CN(C)c1ccc(/C=C/C(O)=C2/C(=O)N(C)C3(C)CC2c2ccccc2O3)cc1 (centres undefined)      Fulfilled
21  COc1cccc(-n2c(SCC(=O)OC(C)C)nnc2-c2cccnc2)c1  Not fulfilled
22  CCc1nnc(NC(=O)CSc2nnc(-c3ccoc3C)n2CC(C)C)s1  Not fulfilled
23                   N#CCSCC(=O)Nc1ccc(F)cc1  Not fulfilled
24  COCC(C)NC(=O)CCS(=O)(=O)c1nc(-c2ccc(OC)cc2)cc(C(F)(F)F)n1 (centres undefined)      Fulfilled
25  Cc1cc(N2C(=O)C(O)=C(C(=O)c3ccc(C)o3)C2c2cccs2)no1 (centres undefined)      Fulfilled
26   CCc1c(C)nc(N2CCN(Cc3ccccc3)CC2)[nH]c1=O  Not fulfilled
27  Oc1ccc(-c2onc(C(F)(F)F)c2-c2cscn2)c(O)c1  Not fulfilled
28  Cc1cc(C)c(C(=O)CSc2nnc(-c3ccccc3Br)o2)cc1C      Fulfilled
29  COc1ccccc1NS(=O)(=O)c1ccc(NC(=O)c2nc3ncccn3n2)cc1  Not fulfilled
30  COc1ccc(N2C(=O)CC(N3CCN(S(=O)(=O)c4c(F)cccc4F)CC3)C2=O)cc1OC (centres undefined)  Not fulfilled

----------
Assay Notes: MRP1 drug-resistance reversers in H69AR cells – cell-based, doxorubicin co-treatment, pilot screen (AID 601)
Condition: H69AR cells + 2 uM doxorubicin, CellTiter-Glo, 72 h; at 10 µM; stronger effect = higher value
Catalogue of compounds with associated differential viability (reversal)
Measured Metric: differential viability (reversal) (%)

>>> df
                                    compound                    measured_metric  experimental_value
 0  CC1Cc2ccccc2N1C(=O)Cc1cccs1 (stereo not given)  differential viability (reversal)                16.1
 1         Oc1ccc(Nc2nc(-c3ccc(O)cc3)cs2)cc1  differential viability (reversal)               -29.7
 2  O=c1c2ccc(-c3nnc4n3-c3ccccc3SC4)cc2nc2n1CCCCC2  differential viability (reversal)                8.88
 3  COc1ccc(OC(C)C(=O)N2CCN(c3ccccn3)CC2)cc1 (stereo not given)  differential viability (reversal)                5.04
 4  Cc1ccc2nc(CSc3nnc(-c4ccco4)n3-c3ccccc3)cc(=O)n2c1  differential viability (reversal)               -10.8
 5  CCOc1ccc(OCC)c(NS(=O)(=O)c2ccc3c(c2)n(C)c(=O)c(=O)n3C)c1  differential viability (reversal)                5.37
 6    C=Cn1c(N2CCOCC2)nc2c1c(=O)[nH]c(=O)n2C  differential viability (reversal)                8.31
 7  O=C(O)c1ccc(-n2nnnc2Oc2ccccc2C(=O)N2CCOCC2)cc1  differential viability (reversal)                16.1
 8          CC(=O)Nc1ccc(NC(=O)c2ccccc2F)cc1  differential viability (reversal)                16.1
 9  COc1ccc(-n2c(N)c(C(=O)NCc3ccco3)c3nc4ccccc4nc32)c(OC)c1  differential viability (reversal)               -1.38
10       c1ccc(-c2nc3nonc3c3nc4ccccc4n23)cc1  differential viability (reversal)               -1.96
11  O=C(NCCN1CCCC1)C1COc2ccccc2O1 (stereo not given)  differential viability (reversal)                1.77
12                COCCNC(=O)c1ccc(Cl)c(Cl)c1  differential viability (reversal)                  17
13      CCOC(=O)N1CCN(C(=O)Nc2ccc(Cl)cc2)CC1  differential viability (reversal)                14.8
14  CC1(C)CC(=O)C=C(NCCN2CCN(C(=O)Nc3ccccc3)CC2)C1  differential viability (reversal)                6.64
15            O=C(NCc1nc2ccccc2[nH]1)c1ccco1  differential viability (reversal)                7.09
16       COc1ccc(CCNC(=O)c2nc3ncccn3n2)cc1OC  differential viability (reversal)                7.66
17    Cc1cc(NCCCn2ccnc2)n2c(nc3ccccc32)c1C#N  differential viability (reversal)                7.14
18  Cc1ccc(NC(=O)C2CCCNC2=O)nc1 (stereo not given)  differential viability (reversal)                3.79
19  O=C(Nc1ccc(Cl)c(Cl)c1)Nc1cc(C(=O)N2CCOCC2)ccc1N1CCCCC1  differential viability (reversal)                4.12
20        COC(=O)C(F)(F)Sc1c(C)[nH]c2ccccc12  differential viability (reversal)                1.54
21  O=c1c2cn[nH]c2nc(SCc2ccc3c(c2)OCCO3)n1-c1ccccc1  differential viability (reversal)               -22.2
22  CCn1c(SCC(=O)NCCc2ccc(Cl)cc2)nnc1-c1cccs1  differential viability (reversal)                4.62
23                CN(C)CCSc1nnc2sc3ccccc3n12  differential viability (reversal)              -0.905
24  COc1cccc2c1C(=O)c1c(O)c3c(c(O)c1C2=O)C[C@@](O)(C(=O)CO)C[C@@H]3O[C@H]1C[C@H](N)[C@H](O)[C@H](C)O1  differential viability (reversal)               -7.64
25  O=C(Cn1cnc2sc(-c3ccccc3)cc2c1=O)N1CCOCC1  differential viability (reversal)                3.61
26  Cc1ccc(CC23CN4CCN(CC(C4)C2O)C3)c(C)c1 (stereo not given)  differential viability (reversal)                8.52
27  CN(C)S(=O)(=O)N1CCN(S(=O)(=O)c2ccc(F)cc2)CC1  differential viability (reversal)                4.42
28         CCc1nnc(NC(=O)CCC(=O)Nc2ccccc2)s1  differential viability (reversal)               -2.88
29        CCOCCCNC(=O)c1ccc2c(c1)ncn2C1CCCC1  differential viability (reversal)                7.26
30  Cc1ccc(C)c(SCC(=O)Nc2nnc(-c3ccccc3)o2)c1  differential viability (reversal)              -0.675
31  O=C(Nc1cc(C(F)(F)F)ccc1Cl)C1CCN(c2nnc(-n3cccc3)s2)CC1  differential viability (reversal)                7.64
32  COCCCNC(=O)CC(NS(=O)(=O)c1ccc(Cl)cc1)c1ccco1 (stereo not given)  differential viability (reversal)                2.94
33           Cc1ccc(C(=O)Nc2ccc3c(c2)OCO3)o1  differential viability (reversal)               -5.72
34     CC(=O)Nc1ccc(NC2=CC(=O)CC(C)(C)C2)cc1  differential viability (reversal)                24.2
35    CCSc1ccccc1C(=O)NCc1ccc(S(N)(=O)=O)cc1  differential viability (reversal)                6.25
36         O=C1CCCc2c1nn(-c1ccccc1)[n+]2[O-]  differential viability (reversal)                1.57
37  CN(c1ccccc1)S(=O)(=O)c1cc(C(=O)N2CCN(c3ccccn3)CC2)ccc1Cl  differential viability (reversal)                10.1
38          CSc1nnc2c3ccccc3n(Cc3ccccc3)c2n1  differential viability (reversal)                1.23
39  CCCN(CCC)CCCNS(=O)(=O)c1ccc2c(c1)oc(=O)n2C  differential viability (reversal)               0.825
